molecular target: h-TGR5 (Homo sapiens, UniProt Q8TDU6); construct: expressed in transfected cells; assay: TGR5 cAMP Assay using Cisbio cAMP Dynamic2 htrf kit (hTGR5CRE-luc HEK 293 cells); assay type: cell-based; details: h-TGR5 cAMP EC50, Table 1; read-out: cAMP (EC50)
In this section we review reported EC50 values for a set of compounds.

Examples with answers:
{"chem_smiles": "CC(C)(c1ccc(Cl)c(OCCCN2CCOCC2)c1)c1cnc(SCc2c(F)cc(C(=O)O)cc2Cl)n1-c1ccc(F)cc1", "EC50": "100 to 1000 nM"}
{"chem_smiles": "COc1cc(C(C)(C)c2cnc(SCc3c(F)cc(S(=O)(=O)NC(=O)NN4CCOCC4)cc3F)n2-c2ccc(F)cc2)ccc1Cl", "EC50": "< 100 nM"}
{"chem_smiles": "COc1ccc(C(C)(C)c2c(Cl)nc(SCc3c(F)cccc3Cl)n2-c2ccc(F)cc2)cc1OC", "EC50": "< 100 nM"}

Alright, here's another compound for you.
For COc1cc(C(C)(C)c2cnc(SCc3ccc(S(=O)(=O)NC(=O)NN4CCCC4)cc3Cl)n2-c2cc(C)c(F)cn2)ccc1Cl , what is its reported EC50?
1000 to 10000 nM

###

Molecular target: h-TGR5 (Homo sapiens, UniProt Q8TDU6)
Construct: expressed in transfected cells
Sequence (Q8TDU6 1-330): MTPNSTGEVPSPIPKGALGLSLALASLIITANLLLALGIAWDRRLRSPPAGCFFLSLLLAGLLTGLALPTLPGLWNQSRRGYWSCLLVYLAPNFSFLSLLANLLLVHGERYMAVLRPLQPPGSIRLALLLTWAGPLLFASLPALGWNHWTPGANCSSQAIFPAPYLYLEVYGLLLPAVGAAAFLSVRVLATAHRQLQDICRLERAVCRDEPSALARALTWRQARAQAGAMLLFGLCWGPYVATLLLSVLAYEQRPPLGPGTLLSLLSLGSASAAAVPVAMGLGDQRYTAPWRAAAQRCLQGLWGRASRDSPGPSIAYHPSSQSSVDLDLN
Assay: TGR5 cAMP Assay using Cisbio cAMP Dynamic2 htrf kit (hTGR5CRE-luc HEK 293 cells)
Type: cell-based
Conditions: h-TGR5 cAMP EC50, Table 1; read-out: cAMP (EC50)
pEC50: −log10 of the molar value.
property_measured: pEC50

Examples with answers:
{"compound": "COc1cc(C(C)(C)c2c(C)nc(SCc3c(F)cc(C(=O)O)cc3Cl)n2-c2ccc(F)cc2)ccc1Cl", "pEC50": "> 7.00"}
{"compound": "CC(C)(c1ccc(F)c(F)c1)c1cnc(SCc2ccc(S(=O)(=O)NC(=O)NN3CCCC3)cc2Cl)n1-c1ccc(F)c(Cl)c1", "pEC50": "5.00 to 6.00"}
{"compound": "COc1cc(-n2c(C(C)(C)c3ccc(S(N)(=O)=O)cc3)cnc2SCc2c(F)cc(C(=O)O)cc2F)ccc1F", "pEC50": "6.00 to 7.00"}
{"compound": "CC(C)(c1ccc(Cl)c(Cl)c1)c1cnc(COc2c(F)cc(C(=O)O)cc2Cl)n1-c1ccc(F)cc1", "pEC50": "6.00 to 7.00"}
{"compound": "COc1cc(C(C)(C)c2cnc(SCc3cc(C(=O)O)ccc3Cl)n2-c2ccc(F)cc2)ccc1Cl", "pEC50": "> 7.00"}

For COc1cc(C(C)(C)c2cnc(SCc3c(F)cc(OCCNC(=N)N)cc3F)n2-c2ccc(F)cc2)ccc1Cl , what is its reported pEC50?
> 7.00

Query COc1cc(C(C)(C)c2cnc(SCc3c(F)cc(OCCCNC(=N)N)cc3Cl)n2-c2ccc(F)cc2)ccc1Cl next
> 7.00

Query CC(=O)NS(=O)(=O)c1ccc(CSc2ncc(C(C)(C)c3ccc(Cl)c(Cl)c3)n2-c2ccc(F)cc2)c(Cl)c1 next
6.00 to 7.00
